# assayed system: APOL1 G0 (Homo sapiens, UniProt O14791, M228I/R255K)
# experiment summary: HEK cell rescue
# Type: cell-based
value kind: EC50

In [3]: df
Out[3]:
                                   compound  value_kind  observed
0  O=C(CCc1c(-c2ccc(F)cc2)[nH]c2c(F)cc(F)cc12)N[C@@H]1C(=O)NC[C@H]1O [VX-147]        EC50    4.3 nM

###

# assayed system: recombinant APOL1 G1 (Homo sapiens, UniProt O14791, I384M/S342G)
# Sequence (O14791 28-398 S342G/I384M): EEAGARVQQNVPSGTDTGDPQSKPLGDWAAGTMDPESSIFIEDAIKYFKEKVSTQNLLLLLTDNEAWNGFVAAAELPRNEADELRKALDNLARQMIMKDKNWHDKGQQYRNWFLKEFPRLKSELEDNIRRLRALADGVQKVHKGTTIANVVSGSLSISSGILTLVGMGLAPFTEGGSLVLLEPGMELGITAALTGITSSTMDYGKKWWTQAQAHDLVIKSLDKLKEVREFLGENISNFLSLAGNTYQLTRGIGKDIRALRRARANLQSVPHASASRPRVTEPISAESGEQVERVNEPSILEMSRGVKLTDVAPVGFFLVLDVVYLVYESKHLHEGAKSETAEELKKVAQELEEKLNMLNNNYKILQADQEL
# experiment summary: Trypanosome
value kind: EC50 (nM)

>>> print(df.to_string())
                                smiles_repr  uom  observed
0  O=C(CCc1c(-c2ccc(F)cc2)[nH]c2c(F)cc(F)cc12)N[C@@H]1C(=O)NC[C@H]1O   nM       2.1
